Tested on: TTR
Assay: TTR editing in primary human hepatocytes transfected with Spy Cas9 mRNA and sgRNAs (Table 13)
Format: cell-based
Settings: primary human hepatocytes co-transfected with Spy Cas9 mRNA (SEQ ID NO:2) and sgRNAs, 12.5 nM
Strand notation (5' to 3'): a small letter for the sugar, then the base; units joined by * are phosphorothioate-linked, units joined directly phosphodiester-linked; [ ] holds rarer units or linkages, { } end groups; capitals alone tell only the bases. m = 2'-O-methyl; r = 2'-OH (RNA)
measured attribute: Avg % Edit (%)

[
  {
    "molecule": "G000570: TTR sgRNA modified sequence, Human, SEQ ID No. 111; guide sequence of CR003347 (nucleic acid) guide: mC*mA*mU*rUrGrArUrGrGrCrArGrGrArCrUrGrCrCrUrGrUrUrUrUrArGrAmGmCmUmAmGmAmAmAmUmAmGmCrArArGrUrUrArArArArUrArArGrGrCrUrArGrUrCrCrGrUrUrArUrCrAmAmCmUmUmGmAmAmAmAmAmGmUmGmGmCmAmCmCmGmAmGmUmCmGmGmUmGmCmU*mU*mU*mU",
    "units label": "%",
    "readout number": 68.42
  },
  {
    "molecule": "G000490: TTR sgRNA modified sequence, Human, SEQ ID No. 97; guide sequence of CR003366 (nucleic acid) guide: mA*mA*mA*rUrArGrArCrArCrCrArArArUrCrUrUrArCrGrUrUrUrUrArGrAmGmCmUmAmGmAmAmAmUmAmGmCrArArGrUrUrArArArArUrArArGrGrCrUrArGrUrCrCrGrUrUrArUrCrAmAmCmUmUmGmAmAmAmAmAmGmUmGmGmCmAmCmCmGmAmGmUmCmGmGmUmGmCmU*mU*mU*mU",
    "units label": "%",
    "readout number": 24.72
  }
]
